- target-system: T1, ErbB2&ErbB4 co-expressed on COS7 cells (UniProt P04626 23-1255; Q15303 26-1308, limits assumed)
- T1 construct: whole, on cells; Both receptors are co-expressed on the same cells, and the numbers are for these cells, not for a single receptor; also called COS7 cells (ErbB2&ErbB4 co-expression)
- protocol: competition of bound radiolabeled ligands on COS7 cells co-expressing ErbB2&ErbB4
Entries and their EC50 values follow.
readout-label: EC50 (nM)

INSERT INTO results (binder, readout_label, measured_result) VALUES
  ('neuregulin (the 177-237 amino acids fragment of neuregulin1 β2) (ligand, also called NRG; NRG-1β) SHLVKCAEKEKTFCVNGGECFMVKDLSNPSRYLCKCPNEFTGDRCQNYVMASFYKAEELYQ', 'EC50', 132),
  ('neuregulin variant D43A (ligand) SHLVKCAEKEKTFCVNGGECFMVKDLSNPSRYLCKCPNEFTGARCQNYVMASFYKAEELYQ', 'EC50', 40.7);
